Value source: paper PMC11480844

B1: H2-Kb / B5 (parent)
chain 1: TQTVSQSDAHVTVFEGDSVELRCNYSYGGSIYLSWYIQHHGHGLQFLLKYYSGNPVVQGVNGFEAEFSKSDSSFHLRKASVHWSDSAVYFCAVSLYQGGRALIFGTGTTVSVSP
chain 2: EAGVTQSPRYAVLQEGQAVSFWCDPISGHDTLYWYQQPRDQGPQLLVYFRDEAVIDNSQLPSDRFSAVRPKGTNSTLKIQSAKQGDTATYLCASSFAGGARAEQFFGPGTRLTVL
chain 3: not shown
chain 4: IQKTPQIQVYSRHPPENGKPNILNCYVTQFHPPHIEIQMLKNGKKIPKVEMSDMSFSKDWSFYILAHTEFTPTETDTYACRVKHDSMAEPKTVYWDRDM
chain 5: SIINFEKL

- Variants of: B1
- ASSAY_COMMENT: % of reporter cells activated (NFAT-GFP), raw; note: test concentration or dose not given here
- CONDITION_DETAILS: with B5; scale: % of reporter cells activated
VALUE_KIND: ratio to parent

Please report the recorded ratio to parent for chain 5 N4C .
0.625

Same thing, different variant: chain 5 E6M
0.903

Same thing, different variant: chain 5 S1G
0.889
